We begin with a simple list: items and their reported normalized growth.
# protocol summary: chemical genetic growth profiling, strain panel (AID 1159580);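 also: tested at 20 µM; growth read once vehicle control cultures reached saturation at 30 °C; 1 = growth at the plate median or of vehicle wells; lower values mean less growth of the strain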
# run conditions: S. cerevisiae deletion strains, growth OD, locus YIL125W, strain kgd1, active compounds read low
The whole screen tested about 5,500 compounds, of which about 2,000 (36%) were called active. Inconclusive results (about 18%) are left out. The list shows a part of the results.
Form field (numeric): enter value without unit.

> print(dat)
                                   molecule  parameter.measured  value.observed
1  CC(=O)OCC(=O)[C@@]1(O)CCC2C3CCC4=CC(=O)CC[C@]4(C)C3[C@@H](O)C[C@@]21C (some centres undefined)   normalized growth           0.996

Kindly note the recorded normalized growth for NC1C[C@H]1c1ccccc1 (some centres undefined) , which is 0.986

Kindly note the recorded normalized growth for COc1ccc2c(=O)ccoc2c1 , which is 1.02

Kindly note the recorded normalized growth for CC(=O)OC1CCC2(C)C3CC(=O)C4(C)C(CC5OC6(CCC(C)CO6)[C@@H](C)C54)C3CC[C@H]2C1 (some centres undefined) , which is 0.974

* * *

# protocol summary: chemical genetic growth profiling, strain panel (AID 1159580);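 also: tested at 20 µM; growth read once vehicle control cultures reached saturation at 30 °C; 1 = growth at the plate median or of vehicle wells; lower values mean less growth of the strain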
# run conditions: S. cerevisiae deletion strains, growth OD, locus YGR078C, strain PAC10, active compounds read low
The campaign covered roughly 5,500 compounds. About 2,000 (36%) were called active. Roughly 18% stayed inconclusive and do not appear here. Some of the results follow.
parameter measured: normalized growth
Form field (numeric): enter value without unit.

Kindly note the recorded normalized growth for O=C(c1cccc([N+](=O)[O-])c1)c1cc2cc(Br)cc(Br)c2o1 , which is 0.989

Kindly note the recorded normalized growth for CC(=O)OCC1=C(C(=O)O)N2C(=O)[C@@H](NC(=O)CCCC(N)C(=O)O)C2SC1 (stereo not given in full) , which is 1.01

* * *

We begin with a simple list: items and their reported normalized growth.
# protocol summary: chemical genetic growth profiling, strain panel (AID 1159580);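 also: tested at 20 µM; growth read once vehicle control cultures reached saturation at 30 °C; 1 = growth at the plate median or of vehicle wells; lower values mean less growth of the strain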
# run conditions: S. cerevisiae deletion strains, growth OD, locus YNR052C, strain pop2, active compounds read low
Screen size: about 5,500 compounds; about 2,000 (36%) were called active. About 18% were inconclusive and are not listed. Some of the results follow.
Form field (numeric): enter value without unit.

Use the examples below as a reference point.
> print(dat)
                                   compound  value.observed
1               O=C1c2ccccc2C(=O)C1c1ccccc1            1.01
2  COc1cc2c(cc1OC)[C@@H]1C(=O)c3ccc4c(c3O[C@@H]1CO2)CC(C(C)C)O4 (some centres undefined)            1.01
3        Cc1cc(C(C)(C)C)c(O)c(C)c1CC1=NCCN1            1.02
4        Cc1ccc(N(CC2=NCCN2)c2cccc(O)c2)cc1           0.998
5  CCCCc1nc(Cl)c(CO)n1Cc1ccc(-c2ccccc2-c2nn[nH]n2)cc1            0.99
6                      CCNc1nc(Cl)nc(NCC)n1            1.02

Kindly note the recorded normalized growth for CCCc1nc2c(C)cc(-c3nc4ccccc4n3C)cc2n1Cc1ccc(-c2ccccc2C(=O)O)cc1 , which is 1.01

Kindly note the recorded normalized growth for CCCCCCCCCCCCCCCCCCOCC(O)CO (centres undefined) , which is 0.999

Kindly note the recorded normalized growth for CCc1cccc2c3c([nH]c12)C(CC)(CC(=O)O)OCC3 (centres undefined) , which is 1.01

src = PubChem BioAssay AID1159580
